Origin of measurements: patent US20250221988A1

tested on: MV4;11 cells; assay: Cell viability assay (CellTiter-Glo) in MV4;11 cells; type: cell-based; settings: Homo sapiens, MV4-11, 72 h, MV4;11 cells, compound alone, three days; read-out: MV4; 11 IC50
Would you mind telling me the reported IC50 of each entry?

Consider the worked cases shown below.
>>> obsvalue("O=C1CCC(N2C(=O)c3ccc(NC[C@H]4C[C@H](n5cc(-c6cnc7ccc(N8CCC(O)C8)cc7n6)c(C6CC6)n5)C4)cc3C2=O)C(=O)N1 (stereo partly drawn)")
"< 10 nM"
>>> obsvalue("O=C1CCC(N2C(=O)c3ccc(NC[C@H]4C[C@H](n5cc(-c6ccc7c(n6)C(O)CC7)c(C6CC6)n5)C4)cc3C2=O)C(=O)N1 (stereo partly drawn)")
"10 to 100 nM"
>>> obsvalue("CN1CC(c2ccc3ncc(-c4cn([C@H]5C[C@H](CNc6ccc7c(c6)C(=O)N(C6CCC(=O)NC6=O)C7=O)C5)nc4C4CC4)nc3c2)C1 (stereo partly drawn)")
"100 to 1000 nM"

Parameter requested: IC50. Apply to each item below.
1. O=C1CCC(N2C(=O)c3ccc(NCC4CC(n5cc(-c6cnc7c(NCC(O)CO)cccc7n6)c(C6CC6)n5)C4)cc3C2=O)C(=O)N1 (stereo not drawn)
2. O=C1CCC(N2C(=O)c3ccc(NCCC[C@H]4C[C@H](n5cc(-c6nccc7c6NCCC7)c(C6CC6)n5)C4)cc3C2=O)C(=O)N1 (stereo partly drawn)
3. O=C1CCC(N2C(=O)c3ccc(NC[C@H]4C[C@H](n5cc(-c6ccc7cn[nH]c7n6)c(C6CC6)n5)C4)cc3C2=O)C(=O)N1 (stereo partly drawn)

// result
< 10 nM
> 1000 nM
10 to 100 nM

====

system: MOLM-13 cells; test: Cell viability assay (CellTiter-Glo) in MOLM-13 cells; type: cell-based; conditions: Homo sapiens, MOLM-13, 72 h, read-out: MOLM-13 IC50 (nM)
readout: IC50

Check out these entries, answers already filled in.
>>> obsvalue("O=C1CCC(N2C(=O)c3ccc(NC[C@H]4C[C@H](n5cc(-n6ncc7ccccc76)c(C6CC6)n5)C4)cc3C2=O)C(=O)N1 (stereo partly drawn)")
"10 to 100 nM"
>>> obsvalue("O=C1CCC(N2C(=O)c3ccc(NC[C@H]4C[C@H](n5cc(Nc6ccccc6)c(C6CC6)n5)C4)cc3C2=O)C(=O)N1 (stereo partly drawn)")
"10 to 100 nM"

Now let's try a different one.
// query # returns recorded IC50 (system: MOLM-13 cells) for CC(C)n1ccc2ccc(-c3cn([C@H]4C[C@H](CNc5ccc6c(c5)C(=O)N(C5CCC(=O)NC5=O)C6=O)C4)nc3C3CC3)nc21 (stereo partly drawn)
// result 100 to 1000 nM

====

test system: MOLM-13 cells; assay: Cell viability assay (CellTiter-Glo) in MOLM-13 cells; format: cell-based; details: MOLM-13 cells, with gilteritinib, three days; read-out: MOLM-13 IC50 (nM) + 10 nM Gil
Answer each item with its documented IC50.

Completed entries (count: 5):
>>> obsvalue("O=C1CCC(N2C(=O)c3ccc(NC[C@H]4C[C@H](n5nc(C6CC6)c6nccnc65)C4)cc3C2=O)C(=O)N1 (stereo partly shown) [GS-648]")
"100 to 1000 nM"
>>> obsvalue("Cc1nc(-c2cn(CC3CC3CNc3ccc4c(c3)C(=O)N(C3CCC(=O)NC3=O)C4=O)nc2C2CC2)ccc1F (stereo not shown) [GS-645]")
"100 to 1000 nM"
>>> obsvalue("Cn1cc(Nc2cn([C@H]3C[C@H](CNc4ccc5c(c4)C(=O)N(C4CCC(=O)NC4=O)C5=O)C3)nc2C2CC2)cn1 (stereo partly shown) [GS-773]")
"< 10 nM"
>>> obsvalue("O=C1CCC(N2C(=O)c3ccc(NC[C@H]4C[C@H](n5nc(C6CC6)c6ccc(N7CCNCC7)cc65)C4)cc3C2=O)C(=O)N1 (stereo partly shown) [GS-742]")
"100 to 1000 nM"
>>> obsvalue("O=C1CCC(N2C(=O)c3ccc(NC[C@H]4C[C@H](n5cc(-c6ccccc6N6CCNCC6)c(C6CC6)n5)C4)cc3C2=O)C(=O)N1 (stereo partly shown) [GS-652]")
"100 to 1000 nM"

Quick batch: IC50 for everything below.
1. O=C1CCC(N2C(=O)c3ccc(NCCC[C@H]4C[C@H](n5cc(-c6nccc7c6NCCC7)c(C6CC6)n5)C4)cc3C2=O)C(=O)N1 (stereo partly shown) [GS-685]
2. O=C1CCC(N2C(=O)c3ccc(NCCC4CC5(C4)CC(n4cc(-c6cnc7ccccc7n6)c(C6CC6)n4)C5)cc3C2=O)C(=O)N1 (stereo not shown) [GS-724]
3. N[C@H]1C[C@@H](n2ncc3cnc(-c4cn([C@H]5C[C@H](CNc6ccc7c(c6)C(=O)N(C6CCC(=O)NC6=O)C7=O)C5)nc4C4CC4)cc32)C1 (stereo partly shown) [GS-778]
4. O=C1CCC(N2C(=O)c3ccc(NC[C@H]4C[C@H](n5nc(C6CC6)c6cccc(N7CCNCC7)c65)C4)cc3C2=O)C(=O)N1 (stereo partly shown) [GS-765]
5. O=C1CCC(N2C(=O)c3ccc(NC[C@H]4C[C@H](n5cc(-c6cccc(N7CCCC7)n6)c(C6CC6)n5)C4)cc3C2=O)C(=O)N1 (relative stereo) [GS-748]
6. O=C1CCC(N2C(=O)c3ccc(NC[C@H]4C[C@H](n5cc(-c6ccccc6C6CCNCC6)c(C6CC6)n5)C4)cc3C2=O)C(=O)N1 (stereo partly shown) [GS-654]
7. Cc1nn([C@H]2C[C@H](CNc3ccc4c(c3)C(=O)N(C3CCC(=O)NC3=O)C4=O)C2)c2ccccc12 (stereo partly shown) [GS-689]

// result
1. 100 to 1000 nM
2. < 10 nM
3. < 10 nM
4. 100 to 1000 nM
5. < 10 nM
6. 100 to 1000 nM
7. 10 to 100 nM

====

tested on: MOLM-13 cells; experiment: Cell viability assay (CellTiter-Glo) in MOLM-13 cells; format: cell-based; details: MOLM-13 cells, with gilteritinib, three days; read-out: MOLM-13 IC50 (nM) + 10 nM Gil
readout: IC50

// known answers, use as guide
>>> obsvalue("Cc1c2ccccc2nn1[C@H]1C[C@H](CNc2ccc3c(c2)C(=O)N(C2CCC(=O)NC2=O)C3=O)C1 (some centres unmarked)")
"100 to 1000 nM"
>>> obsvalue("Cc1cnc2c(c1)c(C1CC1)nn2[C@H]1C[C@H](CNc2ccc3c(c2)C(=O)N(C2CCC(=O)NC2=O)C3=O)C1 (some centres unmarked)")
"100 to 1000 nM"
>>> obsvalue("Cc1cccc2cn([C@H]3C[C@H](CNc4ccc5c(c4)C(=O)N(C4CCC(=O)NC4=O)C5=O)C3)nc12 (some centres unmarked)")
"100 to 1000 nM"
>>> obsvalue("O=C1CCC(N2C(=O)c3ccc(NC[C@H]4C[C@H](n5cc(-c6cnc7ccc(N8CCC(O)C8)cc7n6)c(C6CC6)n5)C4)cc3C2=O)C(=O)N1 (some centres unmarked)")
"< 10 nM"
>>> obsvalue("CC(C)n1cc2c(-c3cn([C@H]4C[C@H](CNc5ccc6c(c5)C(=O)N(C5CCC(=O)NC5=O)C6=O)C4)nc3C3CC3)ncc(F)c2n1 (some centres unmarked)")
"< 10 nM"
>>> obsvalue("NC1CCN(c2ccc3ncc(-c4cn([C@H]5C[C@H](CNc6ccc7c(c6)C(=O)N(C6CCC(=O)NC6=O)C7=O)C5)nc4C4CC4)nc3c2)C1 (some centres unmarked)")
"< 10 nM"
>>> obsvalue("Cn1ncc2ccnc(-c3cn([C@H]4C[C@H](CNc5ccc6c(c5)C(=O)N(C5CCC(=O)NC5=O)C6=O)C4)nc3C3CC3)c21 (some centres unmarked)")
"< 10 nM"
>>> obsvalue("O=C1CCC(N2C(=O)c3ccc(NC[C@H]4C[C@H](n5cc(-c6cnc7cc(N8CC(O)C8)ccc7n6)c(C6CC6)n5)C4)cc3C2=O)C(=O)N1 (some centres unmarked)")
"< 10 nM"

Give IC50 for each of the items listed below.
1. O=C1CCC(N2C(=O)c3ccc(NC[C@H]4C[C@H](n5cc(C6CCC(O)CC6)c(C6CC6)n5)C4)cc3C2=O)C(=O)N1 (some centres unmarked)
2. Cn1ncc2cnc(-c3cn([C@H]4C[C@H](CCc5ccc6c(c5)C(=O)N(C5CCC(=O)NC5=O)C6=O)C4)nc3C3CC3)cc21 (some centres unmarked)

// result
1. 10 to 100 nM
2. 10 to 100 nM

For the 6 compounds below, give their IC50 values.
1. Cc1nc(-c2cn(C3CC(O)(CNc4ccc5c(c4)C(=O)N(C4CCC(=O)NC4=O)C5=O)C3)nc2C2CC2)ccc1F (centres unmarked)
2. O=C1CCC(N2C(=O)c3ccc(NC[C@H]4C[C@H](n5cc(-c6ccc7[nH]ncc7n6)c(C6CC6)n5)C4)cc3C2=O)C(=O)N1 (some centres unmarked)
3. Cc1cccc(-c2cn(C3CC4(CC(C(=O)NCc5ccc6c(c5)C(=O)N(C5CCC(=O)NC5=O)C6=O)C4)C3)nc2C2CC2)n1 (centres unmarked)
4. Cc1nc(-c2cn([C@H]3C[C@H](CNc4ccc5c(c4)C(=O)N(C4CCC(=O)NC4=O)C5=O)C3)nc2C2CC2)cc2c1cnn2C (some centres unmarked)
5. O=C1CCC(N2C(=O)c3ccc(NC[C@H]4C[C@H](n5cc(-c6cc7c(cn6)cnn7C6CNC6)c(C6CC6)n5)C4)cc3C2=O)C(=O)N1 (some centres unmarked)
6. O=C1CCC(N2C(=O)c3ccc(NC[C@H]4C[C@H](n5nc(C6CC6)c6cncnc65)C4)cc3C2=O)C(=O)N1 (some centres unmarked)

// result
10 to 100 nM
10 to 100 nM
100 to 1000 nM
< 10 nM
100 to 1000 nM
100 to 1000 nM
